target: human σ1 receptor (Homo sapiens, UniProt Q99720); construct: expressed in transfected cells; host or cells: HEK-293; experiment: Human σ1 receptor radioligand assay ([3H](+)-pentazocine); assay type: binding; settings: transfected HEK-293 membranes, 5 nM [3H](+)-pentazocine, 37° C., 120 minutes; read-out: Binding σ-[…] (binding to σ1-receptor expressed as Ki)
Sequence (Q99720 whole entry): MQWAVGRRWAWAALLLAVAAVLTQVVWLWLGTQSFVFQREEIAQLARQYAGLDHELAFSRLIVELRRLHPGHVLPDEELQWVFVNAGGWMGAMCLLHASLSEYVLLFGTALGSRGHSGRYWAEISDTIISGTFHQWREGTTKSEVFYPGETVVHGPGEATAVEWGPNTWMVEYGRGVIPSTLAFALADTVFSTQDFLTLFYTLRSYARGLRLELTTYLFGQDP
pKi: −log10 of the molar value.
RECORDED ENDPOINT: pKi

Lab book: pKi of Cc1ccc2c(n1)C(C)(C)CN2C(=O)[C@H]1C[C@@H](N(C)Cc2ccccc2)C1 [Example 139] noted as 6.30 to 7.00

Per the records, this molecule ( CC1(C)CN(C(=O)N2CCC3(CCN(Cc4c(F)cccc4F)CC3)C2)c2cccnc21 [Example 150] ) has pKi equal to < 6.00

Memo: Cc1ccc2c(n1)C(C)(C)CN2C(=O)C1CCN(Cc2ccccc2)CC1 [Example 123] , reported pKi: > 7.00

Form: molecule = Cc1ccc2c(n1)C(C)(C)CN2C(=O)N1CCC2(CC1)CN(Cc1ccccc1)C2 [Example 93] ; pKi = 6.30 to 7.00

Measured pKi of Cc1ccc2c(n1)C(C)(C)CN2C(=O)[C@H]1C[C@H](N(C)Cc2ccccc2)C1 [Example 137] : > 7.00

// recorded pKi for CC1(C)CN(C(=O)NC2CCN(Cc3ccc(F)c(F)c3)CC2)c2cccnc21 [Example 46] : > 7.00

In plain terms, Cc1ccc2c(n1)C(C)(C)CN2C(=O)C1CN(Cc2ccc(F)cc2)C1 [Example 133] has a documented pKi of > 7.00

CN(C)C(CNC(=O)N1CC(C)(C)c2nc(C(F)(F)F)ccc21)c1ccccc1 (stereo not shown) [Example 3] has a reported pKi of 6.30 to 7.00

pKi recorded for this molecule, Cc1ccc2c(n1)C(C)(C)CN2C(=O)[C@H]1CC[C@H](N(C)Cc2ccc(F)c(C#N)c2)CC1 [Example 181] , is > 7.00

Please fill in: pKi reported for CC1(C)CN(C(=O)N2CCC3(CCN(Cc4cccc(F)c4)CC3)C2)c2cccnc21 [Example 152] = > 7.00

# pKi of COc1ccc2c(n1)C(C)(C)CN2C(=O)NC[C@@H](c1ccccc1)N(C)C [Example 17] = > 7.00

pKi reading for Cc1ccc2c(n1)C(C)(C)CN2C(=O)N1CC[C@H](N(C)Cc2ccccc2)C1 [Example 39] : 6.30 to 7.00

pKi for CC1(C)CN(C(=O)NC2CCN(Cc3ccc(F)cc3)CC2)c2cccnc21 [Example 48] is > 7.00

molecule Cc1ccc2c(n1)C(C)(C)CN2C(=O)N1CCC(N(C)Cc2ccncc2)CC1 [Example 75] , pKi observed: < 6.00

// pKi value for CC(C)CCN[C@H]1CCCCN(C(=O)N2CCc3ncccc32)C1 [Example 121] : 6.30 to 7.00

# pKi (molecule: Cc1ccc2c(n1)CCN2C(=O)N1CCC(N(C)Cc2ccccc2)CC1 [Example 49] ) is 6.30 to 7.00

The molecule identified as CC(C)CCN(C)[C@H]1CCCCN(C(=O)N2CCc3ncccc32)C1 [Example 122] registered its pKi at > 7.00

Reported pKi of Cc1ccc2c(n1)CCN2C(=O)NC[C@@H](c1ccccc1)N(C)C [Example 6] : 6.00 to 6.30

The molecule CC1(C)CN(C(=O)N2CCC3(CCN(Cc4cc(C#N)c(F)cc4F)CC3)C2)c2cccnc21 [Example 158] showed pKi equal to > 7.00

Noted for Cc1ccc2c(n1)C(C)(C)CN2C(=O)N1CCC2(CCN(Cc3ccc(C#N)c(F)c3)CC2)CC1 [Example 163] : its pKi reads 6.30 to 7.00

Summary for this molecule, Cc1ccc2c(n1)C(C)(C)CN2C(=O)[C@H]1C[C@@H](NCc2ccccc2)C1 [Example 136] : pKi is 6.30 to 7.00

# pKi (molecule: Cc1ccc2c(n1)C(C)(C)CN2C(=O)N1CCC(N(C)Cc2ccccn2)CC1 [Example 73] ) is < 6.00

Reported pKi of CN(C)[C@@H](CNC(=O)N1CC(C)(C)c2ncccc21)c1ccccc1 [Example 5] : 6.30 to 7.00

molecule COc1ccc(CN(C)C2CCN(C(=O)N3CC(C)(C)c4nc(C)ccc43)CC2)cc1 [Example 58] , pKi observed: 6.30 to 7.00

Lab book: pKi of CN(Cc1ccccc1)[C@H]1CC[C@@H](C(=O)N2CC(C)(C)c3ncccc32)CC1 [Example 127] noted as > 7.00

Form field pKi, entry CC1(C)CN(C(=O)N2CCC3(CCN(Cc4cc(F)ccc4F)CC3)CC2)c2cccnc21 [Example 164] : > 7.00

The measured pKi associated with Cc1ccc2c(n1)C(C)(C)CN2C(=O)NCC(c1ccccc1F)N(C)C (stereo not shown) [Example 19] reads 6.30 to 7.00

Entry under test: Cc1ccc2c(n1)C(C)(C)CN2C(=O)[C@H]1CC[C@H](N(C)Cc2ccc(C(F)(F)F)nc2)CC1 [Example 184] . Its pKi was > 7.00

pKi recorded for this molecule, CN(Cc1cc(C#N)ccc1F)C1CCN(C(=O)N2CC(C)(C)c3ncccc32)CC1 [Example 77] , is < 6.00

GET /value?item= Cc1ccc2c(n1)C(C)(C)CN2C(=O)N1CCC(N(C)Cc2ccc(N(C)C)cc2)CC1 [Example 68] &field=pKi returns 6.30 to 7.00

Looking up CN(Cc1ccccc1)[C@H]1CC[C@@H](NC(=O)N2CC(C)(C)c3ncccc32)CC1 [Example 72] , I found its pKi recorded as > 7.00

Entry Cc1ccc2c(n1)C(C)(C)CN2C(=O)[C@@H]1CN(Cc2ccccc2)C[C@H]1C [Example 124] — recorded pKi = > 7.00

Recorded pKi (molecule CC1(C)CN(C(=O)NC2CC3(CCN(Cc4ccccc4)CC3)C2)c2cccnc21 [Example 104] ): 6.30 to 7.00

Cc1ccc2c(n1)C(C)(C)CN2C(=O)C1CN(Cc2ccccc2)C1 [Example 131] has a reported pKi of > 7.00
